# tgt: human Claudin-6 (CLDN6) (human) (UniProt P56747)
# experimental details: FACS, limiting dilution, UMUC4 cells
Listing of recorded FACS signal at 1.6 nM by entry.
test readout: FACS signal at 1.6 nM

AB S12 (antibody, V domains shown) VH: QVQLVQSGAEVKKPGASVKMSCKASGYTFTTYTMHWVRQAPGQGLEWIGFINPSSGYTEYAQKFQGRVTLTADKSTSTVYMELSSLRSEDTAVYFCANGDYYVGYWGQGTLVTVSS VL: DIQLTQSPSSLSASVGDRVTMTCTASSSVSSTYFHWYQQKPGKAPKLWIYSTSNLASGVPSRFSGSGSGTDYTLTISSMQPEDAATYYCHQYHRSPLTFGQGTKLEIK; 1910
AB S3 (antibody, V domains shown) VH: EVQLLESGGGLVQPGGSMRLSCAASGFTFSNYWMNWVRQAPGKGLEWIAQIRLKSDNYVTHYTDSVKGRFTISRDDSKRTVYLQMNSLRAEDTGIYYCSDGPPSGSWGQGTLLTVSS VL: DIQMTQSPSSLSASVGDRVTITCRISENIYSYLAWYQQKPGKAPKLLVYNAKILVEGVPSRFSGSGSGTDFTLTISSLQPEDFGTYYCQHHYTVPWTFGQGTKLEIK; 647
AB3-7 (antibody, V domains shown, humanized; also called AB23; humanized AB3-7) VH: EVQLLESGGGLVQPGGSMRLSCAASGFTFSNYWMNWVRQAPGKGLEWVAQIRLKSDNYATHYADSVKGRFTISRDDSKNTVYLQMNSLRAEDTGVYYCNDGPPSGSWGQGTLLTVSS VL: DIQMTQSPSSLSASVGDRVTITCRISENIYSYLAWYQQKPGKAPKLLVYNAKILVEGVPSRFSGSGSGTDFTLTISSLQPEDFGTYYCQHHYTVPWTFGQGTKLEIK; 570
